The measurements presented in this section are drawn from patent US20220332795A1.

target: T1, recombinant biotinylated human CD71 extracellular domain (human, UniProt P02786 89-760, biotinylated); test: solution ELISA
T1 construct: extracellular domain; also called hCD71; huCD71 ECD
T1 sequence (P02786 other isoform, or with tags, fused parts or gaps): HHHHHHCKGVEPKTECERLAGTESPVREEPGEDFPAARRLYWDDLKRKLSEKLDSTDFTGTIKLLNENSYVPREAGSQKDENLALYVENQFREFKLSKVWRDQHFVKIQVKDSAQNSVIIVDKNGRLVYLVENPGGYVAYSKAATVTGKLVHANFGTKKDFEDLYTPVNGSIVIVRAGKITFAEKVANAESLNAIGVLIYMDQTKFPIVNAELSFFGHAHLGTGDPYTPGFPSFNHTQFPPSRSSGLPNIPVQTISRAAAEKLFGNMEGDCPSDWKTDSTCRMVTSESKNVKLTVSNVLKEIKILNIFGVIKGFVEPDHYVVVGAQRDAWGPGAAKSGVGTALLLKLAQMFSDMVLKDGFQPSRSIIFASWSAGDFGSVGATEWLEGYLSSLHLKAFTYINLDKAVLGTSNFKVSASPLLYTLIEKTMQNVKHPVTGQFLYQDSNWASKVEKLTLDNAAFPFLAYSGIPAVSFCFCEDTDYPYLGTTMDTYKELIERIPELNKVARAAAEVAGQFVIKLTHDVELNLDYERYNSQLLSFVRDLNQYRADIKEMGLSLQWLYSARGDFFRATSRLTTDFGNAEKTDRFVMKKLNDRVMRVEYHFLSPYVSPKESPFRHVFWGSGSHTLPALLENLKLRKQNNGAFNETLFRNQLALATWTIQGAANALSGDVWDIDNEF
Listing: hCD71, RLU of selected binders
Form entry: value (RLU) — number only.

Example results:
Binder: SEQ ID NO 130 (designed binder, FN3 domain) MLPAPKNLVVSRVTEDSARLSWTAPDAAFDSFVIEYFEWTLNGEAIVLTVPGSERSYDLTGLKPGTEYSVQIYGVKGGCLSRPLSAIFTT
Property label: hCD71, RLU
Units label: RLU
Reported value: 1.61e+06
//
Binder: SEQ ID NO 153 (designed binder, FN3 domain) MLPAPKNLVVSRVTEDSARLSWTAPDAAFDSFYIAYAEPRPDGEAIALHVPGSERSYDLTGLKPGTEYSVLIHGVKGGLLSSPLSAIFTT
Property label: hCD71, RLU
Units label: RLU
Reported value: 339000
//
Binder: SEQ ID NO 118 (designed binder, FN3 domain) MLPAPKNLVVSRVTEDSARLSWTAPDAAFDSFYIAYAEPRPDGEAIWLVVPGSERSYDLTGLKPGTEYSVLIHGVKGGLLSSPLVASFTT
Property label: hCD71, RLU
Units label: RLU
Reported value: 1.73e+06

Measured hCD71, RLU of SEQ ID NO 188 (designed binder, FN3 domain) MLPAPKNLVVSRVTEDSARLSWTAPDAAFDSFYIAYAEPRPDGEAIGLGVPGSERSYDLTGLKPGTEYSVLIHGVKGGLLSSPLDASFTT : 358000
